Reported Ratio (-BP/+BP), DF-10000 values follow for various binders
measurement-target: T1, interleukin 18 binding protein (IL-18BP) (UniProt O95998 31-194)
T1 sequence (looked up): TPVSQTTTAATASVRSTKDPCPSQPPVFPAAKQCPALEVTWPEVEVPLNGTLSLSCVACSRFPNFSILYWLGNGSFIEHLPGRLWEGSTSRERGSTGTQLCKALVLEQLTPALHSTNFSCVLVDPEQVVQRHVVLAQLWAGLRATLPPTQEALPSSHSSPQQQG
test-details: cell-based or functional assay
quantity-name: Ratio (-BP/+BP), DF-10000

INSERT INTO measurements (binder, quantity_name, val) VALUES
  ('IL-18 variant S7Y, K53H, S55M (ligand) YFGKLEYKLSVIRNLNDQVLFIDQGNRPLFEDMTDSDMRDNAPRTIFIISMYHDMQPRGMAVTISVKSEKISTLSSENKIISFKEMNPPDNIKDTKSDIIFFQRSVPGHDNKMQFESSSYEGYFLASEKERDLFKLILKKEDELGDRSIMFTVQNED', 'Ratio (-BP/+BP), DF-10000', 1.33),
  ('IL-18 variant S36F, N41E, K53W (ligand) YFGKLESKLSVIRNLNDQVLFIDQGNRPLFEDMTDFDMRDEAPRTIFIISMYWDSQPRGMAVTISVKSEKISTLSSENKIISFKEMNPPDNIKDTKSDIIFFQRSVPGHDNKMQFESSSYEGYFLASEKERDLFKLILKKEDELGDRSIMFTVQNED', 'Ratio (-BP/+BP), DF-10000', 1),
  ('IL-18 variant L9V, K53H, S55M (ligand) YFGKLESKVSVIRNLNDQVLFIDQGNRPLFEDMTDSDMRDNAPRTIFIISMYHDMQPRGMAVTISVKSEKISTLSSENKIISFKEMNPPDNIKDTKSDIIFFQRSVPGHDNKMQFESSSYEGYFLASEKERDLFKLILKKEDELGDRSIMFTVQNED', 'Ratio (-BP/+BP), DF-10000', 0.94);
